study_target: HDM2 (truncated, residues 17 to 125, containing p53 binding surface) (Homo sapiens (Human))
Sequence (Q00987 17-125): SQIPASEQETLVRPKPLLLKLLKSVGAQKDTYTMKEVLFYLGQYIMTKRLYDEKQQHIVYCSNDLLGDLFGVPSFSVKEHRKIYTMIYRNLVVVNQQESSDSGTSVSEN
protocol_summary: HDM2 FRET assay (inhibition of binding of FITC labeled p53-site peptide to HDM2)
measurement_conditions: Table 23
experimental_readout: IC50 (nM)
Give bare numbers, in nM.

Example entries begin here.
[[record]]
compound = "COc1ccccc1C(C)(OC)c1nc2nc(-c3n[nH]c(=O)o3)nc(-c3cncc(Cl)c3)c2n1C[C@H]1CC[C@H](C)CC1 (mixture of isomers) [Example 23.78]"
experimental_result = 8.22

[[record]]
compound = "CC(F)(c1nc2nc(-c3n[nH]c(=O)o3)nc(-c3cncc(Cl)c3)c2n1C[C@H]1CC[C@H](C)CC1)C1CCCC1 (mixture of isomers) [Example 23.58]"
experimental_result = 1.95


In: What IC50 value was documented for this compound, COC(c1nc2nc(-c3noc(=O)[nH]3)nc(-c3cncc(Cl)c3)c2n1C[C@H]1CC[C@H](C)CC1)C1CCCC1 (mixture of isomers) [Example 23.61] ?
Out: 4.64
